experiment: Cytotoxicity against mouse RAW264.7 cells assessed as cell viability at 1 to 20 uM after 24 hrs by MTT assay relative to control; type: cell-based; conditions: read-out: Activity
property_measured: viability at 24 h, up to 20 µM (%)
Output spec: scalar in %, unitless text.

Some solved entries appear below for comparison.
[
  {
    "molecule": "COc1cc(CCCc2c(OC)cc(O)c(OC)c2OC)ccc1O[C@@H]1O[C@H](CO)[C@@H](O)[C@H](O)[C@H]1O",
    "test_value": 77
  },
  {
    "molecule": "O=C(/C=C/c1ccccc1)OC[C@@]1(O)CO[C@@H](O[C@@H]2[C@@H](O)[C@H](OCc3ccccc3)O[C@H](CO)[C@H]2O)[C@@H]1O [VISARTISIDE E]",
    "test_value": 88.1
  },
  {
    "molecule": "O=C1C[C@@H](c2ccc(O)cc2)Oc2cc(O[C@@H]3O[C@H](CO)[C@@H](O)[C@H](O)[C@H]3O)cc(O)c21",
    "test_value": 100
  },
  {
    "molecule": "O=C(/C=C/c1ccccc1)OC[C@H]1O[C@@H](Oc2cc(O)c3c(c2)O[C@H](c2ccc(O)c(O)c2)CC3=O)[C@H](O)[C@@H](O)[C@@H]1O [VISARTISIDE B]",
    "test_value": 100
  },
  {
    "molecule": "COc1ccc(/C=C/CO[C@@H]2O[C@H](CO)[C@@H](O)[C@H](O[C@@H]3OC[C@](O)(COC(=O)/C=C/c4ccccc4)[C@H]3O)[C@H]2O)cc1O [VISARTISIDE F]",
    "test_value": 85.2
  }
]

Alright, here's another molecule for you.
Lookup: Report viability at 24 h, up to 20 µM, nothing else, for this molecule: COc1cc([C@@H]2CC(=O)c3c(O)cc(O[C@@H]4O[C@H](CO)[C@@H](O)[C@H](O)[C@H]4O)cc3O2)ccc1O
Found: 88.7

----------
assay: Cytotoxicity against mouse RAW264.7 cells assessed as cell viability at 1 to 20 uM after 24 hrs by MTT assay relative to control; format: cell-based; details: read-out: Activity
// viability at 24 h, up to 20 µM lookup, one value per entry
Output spec: scalar in %, unitless text.

Some solved entries appear below for comparison.
[
  {
    "molecule": "O=c1c(O)c(-c2ccc(O)c(O)c2)oc2cc(O)cc(O)c12 [QUERCETIN]",
    "units_symbol": "%",
    "test_value": 100
  },
  {
    "molecule": "O=C(/C=C/c1ccccc1)OC[C@@]1(O)CO[C@@H](O[C@H]2[C@H](Oc3cc(O)c4c(c3)O[C@H](c3ccc(O)c(O)c3)CC4=O)O[C@H](CO)[C@@H](O)[C@@H]2O)[C@@H]1O [VISARTISIDE C]",
    "units_symbol": "%",
    "test_value": 99.7
  }
]

Alright, here's another molecule for you.
Lookup: Report viability at 24 h, up to 20 µM, nothing else, for this molecule: O=C1C[C@@H](c2ccc(O)c(O)c2)Oc2cc(O[C@@H]3O[C@H](CO)[C@@H](O)[C@H](O)[C@H]3O)cc(O)c21
Found: 100
